Measured Ki (Carbonic anhydrase 12 (Homo sapiens, UniProt O43570))
REPORTED_ENDPOINT: Ki (nM)

>  <TEST_SMILES>
CCOc1ccc(S(=O)(=O)NCCN)cc1-c1nnc2c(n1)c(C)nn2C

>  <UNIT_OF_MEASURE>
nM

>  <ASSAY_VALUE>
57.3

$$$$
>  <TEST_SMILES>
CCOc1ccc(S(=O)(=O)NCCO)cc1-c1nnc2c(n1)c(C)nn2C

>  <UNIT_OF_MEASURE>
nM

>  <ASSAY_VALUE>
7.3

$$$$
>  <TEST_SMILES>
CCCc1nn(C)c2nnc(-c3cc(S(=O)(=O)N4CCN(C)CC4)ccc3OCC)nc12

>  <UNIT_OF_MEASURE>
nM

>  <ASSAY_VALUE>
629

$$$$
>  <TEST_SMILES>
CCCc1nn(C)c2nnc(-c3cc(S(=O)(=O)N4CCNCC4)ccc3OCC)nc12

>  <UNIT_OF_MEASURE>
nM

>  <ASSAY_VALUE>
3.8

$$$$
>  <TEST_SMILES>
CCOc1ccc(S(=O)(=O)N2CCCNCC2)cc1-c1nnc2c(n1)c(C)nn2C

>  <UNIT_OF_MEASURE>
nM

>  <ASSAY_VALUE>
667

$$$$
>  <TEST_SMILES>
CCOc1ccc(S(=O)(=O)NC(C)(C)CO)cc1-c1nnc2c(n1)c(C)nn2C

>  <UNIT_OF_MEASURE>
nM

>  <ASSAY_VALUE>
608

$$$$
>  <TEST_SMILES>
CCOc1ccc(S(=O)(=O)N2CCOCC2)cc1-c1nnc2c(n1)c(C)nn2C

>  <UNIT_OF_MEASURE>
nM

>  <ASSAY_VALUE>
30.2

$$$$
>  <TEST_SMILES>
CCOc1ccc(S(=O)(=O)N2CCN(C)CC2)cc1-c1nnc2c(n1)c(C)nn2C

>  <UNIT_OF_MEASURE>
nM

>  <ASSAY_VALUE>
636

$$$$

====

# MEASURED_ON: Cyclin-dependent kinase 2/cyclin E1 (Homo sapiens)
# PROTOCOL_NOTES: Inhibition of CDK2/Cyclin E (unknown origin) using histone H1 as substrate by [gamma-33P]ATP assay

>  <TEST_SMILES>
CCOc1ccc(S(=O)(=O)N2CCN(C)CC2)cc1-c1nnc2c(n1)c(C)nn2C

>  <IC50>
> 50 µM

$$$$
>  <TEST_SMILES>
CCOc1ccc(S(=O)(=O)N(CC)CC)cc1-c1nnc2c(n1)c(C)nn2C

>  <IC50>
> 50 µM

$$$$
>  <TEST_SMILES>
CCOc1ccc(S(=O)(=O)NCCN2CCOCC2)cc1-c1nnc2c(n1)c(C)nn2C

>  <IC50>
> 50 µM

$$$$

====

Record: Ki reported on Carbonic anhydrase 9 (Homo sapiens, UniProt Q16790).

>  <TEST_SMILES>
CCOc1ccc(S(=O)(=O)N2CCN(C)CC2)cc1-c1nnc2c(n1)c(C)nn2C

>  <MEASURED_ON>
Carbonic anhydrase 9 (Homo sapiens, UniProt Q16790)

>  <Ki / nM>
37.7

$$$$
>  <TEST_SMILES>
CCCc1nn(C)c2nnc(-c3cc(S(=O)(=O)N4CCN(C)CC4)ccc3OCC)nc12

>  <MEASURED_ON>
Carbonic anhydrase 9 (Homo sapiens, UniProt Q16790)

>  <Ki / nM>
15.4

$$$$
>  <TEST_SMILES>
CCCc1nn(C)c2nnc(-c3cc(S(=O)(=O)N4CCNCC4)ccc3OCC)nc12

>  <MEASURED_ON>
Carbonic anhydrase 9 (Homo sapiens, UniProt Q16790)

>  <Ki / nM>
38.7

$$$$
>  <TEST_SMILES>
CCOc1ccc(S(N)(=O)=O)cc1-c1nnc2c(n1)c(C)nn2C

>  <MEASURED_ON>
Carbonic anhydrase 9 (Homo sapiens, UniProt Q16790)

>  <Ki / nM>
31.6

$$$$
